Reference source: patent US20240158446A1

Biological target: GDP-bound KRAS wild-type protein (Homo sapiens, UniProt P01116)
Sequence (P01116 whole entry): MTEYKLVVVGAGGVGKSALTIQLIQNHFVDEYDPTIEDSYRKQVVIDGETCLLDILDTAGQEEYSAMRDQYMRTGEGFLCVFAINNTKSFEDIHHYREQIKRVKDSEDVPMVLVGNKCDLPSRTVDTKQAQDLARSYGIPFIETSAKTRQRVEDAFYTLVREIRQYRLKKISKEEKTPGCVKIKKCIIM
Test: Binding to KRAS by surface plasmon resonance (SPR), Single Cycle Kinetics
Settings: SPR Single Cycle Kinetics, GDP-bound KRAS wild-type protein, 1:1 binding model; read-out: KRAS KD
Where a SMILES comes first, the peptide text is derived from it. Bridges are numbered along the chain shown (N, C = ends). [ ]: non-standard residue; d: D form. The star is where a group is joined. hPhe(3-Cl-4-CF3) = N[C@@H](CCc1ccc(C(F)(F)F)c(Cl)c1)C(=O)O; NMePhe(4-Me) = CN[C@@H](Cc1ccc(C)cc1)C(=O)O; NMeD = CN[C@@H](CC(=O)O)C(=O)O; NMeL = CN[C@@H](CC(C)C)C(=O)O; NMeAib = CNC(C)(C)C(=O)O; Nle = CCCC[C@H](N)C(=O)O; Piperidide = C1CCN(*)CC1; Sar = CNCC(=O)O
Answer each item with its documented log10 Kd.
Recall that a logarithmic scale is used here: each number is log10 of Kd in nM.

State the recorded log10 Kd for this entry: "CCC[C@H]1C(=O)N[C@@H]([C@@H](C)CC)C(=O)N(C2CC2)CC(=O)N(C)[C@H]2C/C=C\CCN(C2=O)[C@@H](Cc2ccc(C)cc2)C(=O)N(C)CC(=O)N[C@@H](CCc2ccc(Cl)c(Cl)c2)C(=O)N2C[C@H](OCC)C[C@H]2C(=O)NC2(CC(C)(C)C2)C(=O)N(C)[C@@H](C(CC)CC)C(=O)N(C)[C@H](C(=O)N(C)C)CC(=O)N1C"
0.28

State the recorded log10 Kd for this entry: "CCC(CC)[C@H]1C(=O)N(C)[C@H](C(=O)N2CCCC2)CC(=O)N(C)[C@H]2CCC/C=C/c3ccc(cc3)C[C@@H](C(=O)N(C)CC(=O)N[C@@H](CCc3ccc(Cl)c(Cl)c3)C(=O)N3CCC[C@H]3C(=O)NC3(CC(C)(C)C3)C(=O)N1C)N1CC/C=C\C[C@@H](C1=O)N(C)C(=O)CN(C)C(=O)[C@H]([C@@H](C)CC)NC2=O"
-0.40

State the recorded log10 Kd for this entry: "CCC[C@H]1C(=O)N[C@@H]([C@@H](C)CC)C(=O)N(C)CC(=O)N(C)[C@H]2C/C=C\CCN(C2=O)[C@@H](Cc2ccc(C(F)(F)F)cc2)C(=O)N(C)CC(=O)N[C@@H](CCc2ccc3sc(C)c(C)c3c2)C(=O)N2C[C@H](OCC)C[C@H]2C(=O)NC2(CC(C)(C)C2)C(=O)N(C)[C@@H](C(CC)CC)C(=O)N(C)[C@H](C(=O)N(C)C)CC(=O)N1C"
-0.36

State the recorded log10 Kd for this entry: "CCO[C@@H]1C[C@H]2C(=O)NC3(CC(C)(C)C3)C(=O)N(C)[C@@H](C3CCCCC3)C(=O)N(C)[C@H](C(=O)N(C)C)CC(=O)N(C)[C@@H](COC)C(=O)N[C@@H]([C@@H](C)CC)C(=O)N(C)CC(=O)N(C)[C@H]3C/C=C\CCN(C3=O)[C@@H](Cc3ccc(C)cc3)C(=O)N(C)CC(=O)N[C@@H](CCc3cc(F)c(C(F)(F)F)c(F)c3)C(=O)N2C1"
-0.72

State the recorded log10 Kd for this entry: "CCC[C@H]1C(=O)N[C@@H]([C@@H](C)CC)C(=O)N(C)CC(=O)N(C)[C@H]2C/C=C\CCN(C2=O)[C@@H](Cc2ccc(C(F)(F)F)cc2)C(=O)N(C)CC(=O)N[C@@H](CCc2ccc(Cl)c(Cl)c2)C(=O)N2C[C@H](OCC)C[C@H]2C(=O)NC2(CC(C)(C)C2)C(=O)N(C)[C@@H](CC2CCC2)C(=O)N(C)[C@H](C(=O)N(C)C)CC(=O)N1C"
-0.28

State the recorded log10 Kd for this entry: CCCC[C@@H]1NC(=O)[C@H](CCc2ccc(C(F)(F)F)c(Cl)c2)NC(=O)CN(C)C(=O)[C@H](Cc2ccc(C)cc2)N(C)C(=O)CN(C)C(=O)CN(C)C(=O)[C@H]([C@@H](C)CC)NC(=O)[C@H](CC(C)C)N(C)C(=O)C[C@@H](C(=O)N2CCCCC2)N(C)C(=O)[C@H](CC(C)C)NC(=O)C(C)(C)N(C)C1=O [PP0049] ([NMeL]I[Sar][Sar][NMePhe(4-Me)][Sar][hPhe(3-Cl-4-CF3)][Nle][NMeAib]L[NMeD]-Piperidide; lactam N-11)
0.80
